Source listed as the supplement of paper PMC11451515.

Recorded cell viability for the following compounds
- Tested on: SEM cells
- TEST NAME: cell viability relative to DMSO control; higher = less cytotoxic
- RUN CONDITIONS: RPMI 5 mM glucose + 10% FBS; 48 h; 0.00702 µM
Hi! Could you send only the number? It should be in %, unit omitted.

// below: answered compounds
{"STRUCTURE NOTATION": "C[C@]12Cc3cn[nH]c3C[C@@H]1CC[C@@H]1[C@@H]2CC[C@@]2(C)[C@H]1CC[C@]2(C)O", "STUDY TARGET": "SEM cells", "cell viability / %": 104}
{"STRUCTURE NOTATION": "O=C(CCc1ccc(O)cc1)c1c(O)cc(O)cc1O", "STUDY TARGET": "SEM cells", "cell viability / %": 102}
{"STRUCTURE NOTATION": "CC[C@]12CC[C@H]3[C@@H](CCC/4=C/C(=O)CC[C@H]34)[C@@H]1CC[C@@]2(O)C#C", "STUDY TARGET": "SEM cells", "cell viability / %": 102}
{"STRUCTURE NOTATION": "CC(C)N(C[C@H]1O[C@@H](n2cnc3c(N)ncnc32)[C@H](O)[C@@H]1O)[C@H]1C[C@@H](CCc2nc3cc(C(C)(C)C)ccc3[nH]2)C1", "STUDY TARGET": "SEM cells", "cell viability / %": 131}

Okay, next one:
Lookup result for "CCN1\C=C(\C(O)=O)C(=O)C2=C1N=C(N3CCNCC3)C(=C2)F" ; measured cell viability: 72
